system: WPMY1-GM130-SQSTM1; assay: lowest phenotypically active concentration; higher = less potent; details: treatment time: 24 h
Where a name gives a salt, the structure may show the parent alone.
# Lookup of reported lowest phenotypically active concentration keyed by entry
Number in µM, nothing else.

(Q) Please give the measured lowest phenotypically active concentration for this compound: Cc1cccc(CCN2CCC(C(=O)c3ccc(NS(C)(=O)=O)cc3)CC2)n1
(A) 3

(Q) Please report the recorded lowest phenotypically active concentration for CC1(C)CC(=O)C2=C(C1)NC(=S)NC2c1cccc(O)c1 (centres undefined) [Dimethylenastron] .
(A) 1

(Q) Give its lowest phenotypically active concentration value. Item: O=[N+]([O-])c1cc(Cl)ccc1S(=O)(=O)c1ccccc1
(A) 9

(Q) Dear colleague, I am looking for the recorded lowest phenotypically active concentration of the following compound: CCOC(=O)C1=C[C@]2(CC)CCCN3CCc4c(n1c1ccccc41)[C@@H]32 [Vinpocetine]
(A) 9

(Q) Quick one: lowest phenotypically active concentration for CCCC1(CCC)CCC2(CCN(CCCN(CC)CC)C2)CC1 [Atiprimod dihydrochloride] ?
(A) 1

----------
tested on: HepG2-CANX-COX4; assay: phenotypically active (imaging signature differs from DMSO and reproducible) at any of 0.3-9 uM (binary (1 = active, 0 = inactive)); higher = active; conditions: treatment time: 24 h
Measured phenotypically active values are reported for all entries that follow.
The answer should be a number; do not append a unit.

(Q) Quick one: phenotypically active for CO[C@H]1C=CO[C@@]2(C)Oc3c(C)c(O)c4c(O)c(c(/C=N/N5CCN(C)CC5)c(O)c4c3C2=O)NC(=O)C(C)=CC=C[C@H](C)[C@H](O)[C@@H](C)[C@@H](O)[C@@H](C)[C@H](OC(C)=O)[C@@H]1C ?
(A) 1

(Q) Data request, read-out phenotypically active, for Brc1c(NC2=NCCN2)ccc2nccnc12
(A) 0

----------
system: WPMY1-CANX-COX4; assay: phenotypically active (imaging signature differs from DMSO and reproducible) at any of 0.3-9 uM (binary (1 = active, 0 = inactive)); higher = active; conditions: treatment time: 24 h
Structures can show the parent of a compound that is named as a salt.
phenotypically active reference
Simply state the number, no unit and no words.

Examples with their reported phenotypically active follow.
Cc1c(C)c2c(c(C)c1O)CC[C@@](C)(CCC[C@H](C)CCC[C@H](C)CCCC(C)C)O2 [Tocopherol (R,S)] :: 0
O=C(CCCCSc1nc(-c2ccc(-c3ccccc3)cc2)cc(=O)[nH]1)NO :: 1
Cc1nc[nH]c1C1CCN(c2nc3cccc4c3n2CCC4=O)CC1 :: 0
CO/N=C/C1=CCCN(C)C1 [Milameline hydrochloride] :: 0
CC(=O)N[C@@H](CC(=O)O)C(=O)N[C@@H](CCC(=O)O)C(=O)O [Spaglumic acid] :: 0

(Q) Bench note: what phenotypically active did O=C(c1ccccc1)c1ccc2n1CCC2C(=O)O (centres undefined) [ketorolac] show?
(A) 0

(Q) Given the compound Clc1ccc(C(c2ccc(Cl)cc2)[n+]2ccn(CC(OCc3ccc(Cl)cc3Cl)c3ccc(Cl)cc3Cl)c2)cc1 (centres undefined) [Calmidazolium chloride] , what is its reported phenotypically active?
(A) 1

(Q) Which phenotypically active is listed for O=C(O)c1c(Sc2ccccc2)c2cc(Cl)ccc2n1Cc1ccc(Cl)cc1 ?
(A) 0

(Q) Can you share its phenotypically active? I mean this compound: CCN(CC)CCOC(=O)C1(C2CCCCC2)CCCCC1 [dicycloverine]
(A) 0

(Q) Value lookup for phenotypically active; key = CCCN[C@H]1CCc2nc(N)sc2C1 [pramipexole]
(A) 0

----------
test system: WPMY1-TP53BP1-CLTA; assay: phenotypically active (imaging signature differs from DMSO and reproducible) at any of 0.3-9 uM (binary (1 = active, 0 = inactive)); higher = active; details: treatment time: 24 h
Structures can show the parent of a compound that is named as a salt.
phenotypically active overview
Answer with a number only.

CO[C@H]1C=CO[C@@]2(C)Oc3c(C)c(O)c4c(O)c(c5c(nc6cc(C)ccn65)c4c3C2=O)NC(=O)C(C)=CC=C[C@H](C)[C@H](O)[C@@H](C)[C@@H](O)[C@@H](C)[C@H](OC(C)=O)[C@@H]1C :: 0
COc1ccc(CN(CCN(C)C)c2ccccn2)cc1 :: 0
O=c1[nH]cnc2[nH]ncc12 :: 0
Cc1ccc(-c2c(-c3nn(C)c4ncnc(N5CC[C@H](N6CCCCC6)C5)c34)cnn2C)cc1 :: 0
CC(C)c1cc(-c2n[nH]c(=O)n2-c2ccc3c(ccn3C)c2)c(O)cc1O :: 1

(Q) Quick check: phenotypically active on WPMY1-TP53BP1-CLTA, item Cc1cccc(Nc2ccccc2C(=O)O)c1C ?
(A) 0

(Q) phenotypically active of Cc1cccc(Nc2cc(Cl)nc(SCC(=O)O)n2)c1C on WPMY1-TP53BP1-CLTA?
(A) 0

(Q) Form: Entry = C=C1CC[C@H](O)C/C1=C\C=C1\CCC[C@]2(C)[C@@H]([C@H](C)/C=C/[C@H](C)C(C)C)CC[C@@H]12 | System = WPMY1-TP53BP1-CLTA | phenotypically active = ____
(A) 0

(Q) Provide the documented phenotypically active with WPMY1-TP53BP1-CLTA as the system for CC(C)C(=O)SCCCCCCC(=O)Nc1nc(-c2ccccc2)cs1
(A) 1

(Q) Recorded phenotypically active for CN1CC[C@]23c4ccccc4N[C@H]1[C@]21CCN(C)[C@H]3Nc2ccccc21 with WPMY1-TP53BP1-CLTA, please?
(A) 0

(Q) I'm curious: which phenotypically active was measured for C#C[C@]1(O)CC[C@H]2[C@@H]3CCC4=CCCC[C@@H]4[C@H]3C(=C)C[C@@]21CC tested on WPMY1-TP53BP1-CLTA?
(A) 0

(Q) Under WPMY1-TP53BP1-CLTA: phenotypically active value of COC(=O)c1c(-c2cc(OC)c(OC)c(OC)c2)c2ccnc(OCc3ncccn3)c2c(=O)n1Cc1ccnc(C)c1 [T 0156 hydrochloride] ?
(A) 0

(Q) For the record COc1ccc(-c2ccc3cc(C(=O)O)ccc3c2)cc1C12CC3CC(CC(C3)C1)C2 , what value of phenotypically active is listed for WPMY1-TP53BP1-CLTA?
(A) 0

(Q) // map Cc1cc2cc(NS(=O)(=O)c3ccc(C#N)cc3)ccc2n(C)c1=O to recorded phenotypically active (system: WPMY1-TP53BP1-CLTA)
(A) 0

(Q) Hello, I am looking for reported phenotypically active with WPMY1-TP53BP1-CLTA for O=C1NCCN1CCN1CCC(c2cn(-c3ccc(F)cc3)c3ccc(Cl)cc23)CC1 . Could you help?
(A) 1

(Q) Form entry - test system: WPMY1-TP53BP1-CLTA; read-out: phenotypically active; compound: C=C1C[C@]23C[C@@]1(O)CC[C@H]2[C@@]12C=C[C@H](O)[C@](C)(C(=O)O1)[C@H]2[C@@H]3C(=O)O
(A) 0

(Q) So what phenotypically active did CC(C)CNc1nc(-c2cccc3ncccc23)cn2c(-c3ccc(C(=O)NC4CC4)cc3)cnc12 get with WPMY1-TP53BP1-CLTA?
(A) 1

----------
test system: WPMY1-TUBA1B-RELA; assay: lowest phenotypically active concentration; higher = less potent; settings: treatment time: 24 h
Counter-ions that a name gives are not always drawn.
experimental.endpoint: lowest phenotypically active concentration (µM)
Return type: number; implicit unit µM.

(Q) Sample Cc1noc(C)c1-c1ccc2c(c1)nc(CCc1ccc(OCCCN(C)C)cc1)n2CCN1CCOCC1 — what was its lowest phenotypically active concentration?
(A) 9

(Q) I would be grateful if you could share the reported lowest phenotypically active concentration for O=c1cc(N2CCOCC2)oc2c1ccc1ccccc12 .
(A) 9

(Q) Reported lowest phenotypically active concentration for O=c1cc(-c2ccccc2)oc2c(O)c(O)ccc12 [7,8-Dihydroxyflavone] : what is it?
(A) 9

(Q) Look up lowest phenotypically active concentration: NCCCCNS(=O)(=O)c1ccc2c(Cl)cccc2c1 [W-13 hydrochloride]
(A) 9

(Q) What measured lowest phenotypically active concentration goes with CC(C)(C)Nc1nc(Nc2ccc(C(N)=O)cc2)cc(N)c1C#N ?
(A) 9

(Q) Entry CN1CCc2cccc3c2[C@H]1Cc1ccc(O)c(O)c1-3 [r(-)-apomorphine] : reported lowest phenotypically active concentration = ?
(A) 9

(Q) Fill in: lowest phenotypically active concentration of Cc1noc(C)c1-c1cc(O)cc(C(O)c2ccccc2)c1 (stereo not drawn) is ___
(A) 3

(Q) May I ask what lowest phenotypically active concentration has been recorded for CCCCc1oc2ccccc2c1C(=O)c1cc(I)c(OCCN(CC)CC)c(I)c1 ?
(A) 9

(Q) Would you mind telling me what lowest phenotypically active concentration value was observed for Cc1cc(Nc2nc(N[C@@H](C)c3ncc(F)cn3)ncc2Cl)n[nH]1 ?
(A) 3

(Q) So what's the measured lowest phenotypically active concentration for this one? Nc1nc(Cl)nc2c1ncn2[C@H]1C[C@H](O)[C@@H](CO)O1
(A) 1

(Q) Suppose we examine the compound COc1ccccc1OCCNCC(O)COc1cccc2[nH]c3ccccc3c12 (stereo not drawn) ; what lowest phenotypically active concentration value has been reported?
(A) 9

(Q) Entry Cc1c(O)cccc1C(=O)N[C@@H](CSc1ccccc1)[C@H](O)CN1C[C@H]2CCCC[C@H]2C[C@H]1C(=O)NC(C)(C)C has what lowest phenotypically active concentration?
(A) 9

(Q) Which lowest phenotypically active concentration value belongs to CC(C)(C)c1ccc(C(O)CCCN2CCC(C(O)(c3ccccc3)c3ccccc3)CC2)cc1 (stereo not drawn) ?
(A) 3

(Q) Please report the recorded lowest phenotypically active concentration for Oc1ccc(Nc2nc(-c3ccc(Cl)cc3)cs2)cc1 .
(A) 9

(Q) # lowest phenotypically active concentration lookup, item CCOC(=O)Nc1cc(-c2ccc(C)c(NS(C)(=O)=O)c2)nn2c(C)nnc12
(A) 1

(Q) What does the record list as lowest phenotypically active concentration for COc1cc(Br)c(Nc2nc(-c3c(C)nc4ncccn34)cs2)c(Br)c1 ?
(A) 1

(Q) Could you share which lowest phenotypically active concentration value was measured for O=C(O/N=C1\c2ccccc2-c2nc3ccccc3nc21)c1ccco1 ?
(A) 3

(Q) Which lowest phenotypically active concentration value is on record for Nc1ncnc2c1nc(Cl)n2C1O[C@H](CO)[C@@H](O)[C@H]1O (stereo partly drawn) ?
(A) 3

(Q) Bench note: what lowest phenotypically active concentration did Nc1cc(N)c(N)cc1N show?
(A) 1

(Q) Which value of lowest phenotypically active concentration has been reported for OC[C@H]1O[C@@H](n2cnc3c(NCc4ccco4)ncnc32)[C@H](O)[C@@H]1O [Kinetin riboside] in the records?
(A) 3

(Q) Fill in the blank: the reported lowest phenotypically active concentration of CCN(CCO)CCCC(C)Nc1ccnc2cc(Cl)ccc12 (stereo not drawn) [hydroxychloroquine] is ____.
(A) 9

(Q) I have this compound here, Cc1cccc(-c2n[nH]cc2-c2ccc(F)c(-c3cnn(CCO)c3)c2)n1 , and I need its recorded lowest phenotypically active concentration.
(A) 9

(Q) I would be grateful if you could share the reported lowest phenotypically active concentration for CN1CCN(C(=O)CN[C@H]2C[C@@H]2c2ccc(OCc3ccccc3)cc2)CC1 [RN 1 dihydrochloride] .
(A) 9

(Q) For the compound Oc1ccc(-c2nc(-c3ccc(F)cc3)c(-c3ccncc3)[nH]2)cc1 , what lowest phenotypically active concentration is on record?
(A) 3

(Q) Query (compound): Cc1nc(NC(=O)N2CCC[C@H]2C(N)=O)sc1-c1ccnc(C(C)(C)C(F)(F)F)c1 ; field requested: lowest phenotypically active concentration
(A) 9

(Q) Could you share which lowest phenotypically active concentration value was measured for N#Cc1ccc2ncnc(NCCc3ccccc3)c2c1 ?
(A) 3

(Q) Item Nc1nc(S)c2[nH]cnc2n1 has what recorded lowest phenotypically active concentration?
(A) 9

Data provenance: the supplement of paper PMC7411054
